Target: GST A1-1 (Homo sapiens)
Sequence (P08263 whole entry): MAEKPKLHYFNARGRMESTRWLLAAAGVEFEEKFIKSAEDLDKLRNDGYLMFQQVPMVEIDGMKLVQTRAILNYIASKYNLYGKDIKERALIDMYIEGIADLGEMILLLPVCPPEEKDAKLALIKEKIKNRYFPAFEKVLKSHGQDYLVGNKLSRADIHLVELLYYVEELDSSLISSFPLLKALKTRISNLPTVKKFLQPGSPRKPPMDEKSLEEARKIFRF
Experiment: biochemical
MEASURE: pIC50
Hey, just a heads up that pIC50 is the negative log base 10 of the concentration in molar.

Hello, please tell me recorded pIC50 for this one: C[CH2][Ge]([Cl])([CH2]C)[CH2]C
4.25

Determine from records and report pIC50 for [Cl][Pb]([c]1ccccc1)([c]1ccccc1)[c]1ccccc1
8.34

For the compound C[CH2][Pb]([Cl])([CH2]C)[CH2]C , give its measured pIC50 value.
5.70

Tell us which pIC50 value is on record for [Br][Pb]([c]1ccccc1)([c]1ccccc1)[c]1ccccc1
8.07
